- System: Pancreatin
- Assay name: Pancreatin stability
- Format: in vitro ADME, porcine
- Condition details: 1 % (w/v) pancreatin, 5 µM, pH 7.5, 37 °C, after 60 min
- Description: Pancreatin Stability: Stability studies were conducted by incubating prodrug (5 µM) with 1 % (w/v) pancreatin (Sigma, P-1625, from porcine pancreas) in 0.025 M Tris buffer containing 0.5 M NaCl (pH 7.5) at 37 °C for 60 min. The reaction was stopped by addition of 2 volumes of methanol. After centrifugation at 14,000 rpm for 10 min, the supernatant was removed and analyzed by LC/MS/MS.
Measured % of Baclofen Released accompanies every entry in the list below.
Value expressed in %; do not type the unit.

Past entries and their recorded results:
>>> recorded_value("CCC[C@H](OC(=O)NC[C@H](CC(=O)[O-])c1ccc(Cl)cc1)OC(=O)C(C)C.[Na+] [(91)]")
78
>>> recorded_value("CC(=O)OC(OC(=O)NC[C@H](CC(=O)[O-])c1ccc(Cl)cc1)C(C)C.[Na+] (some centres unmarked) [(23)]")
24
>>> recorded_value("CC(C)(C)C(=O)OCOC(=O)NC[C@H](CC(=O)[O-])c1ccc(Cl)cc1.[Na+] [(20)]")
36
>>> recorded_value("CC(C)C(=O)OC(OC(=O)NC[C@H](CC(=O)[O-])c1ccc(Cl)cc1)C(C)C.[Na+] (some centres unmarked) [(25)]")
84

Sample CCCC(=O)OC(OC(=O)NC[C@H](CC(=O)[O-])c1ccc(Cl)cc1)C1CCCCC1.[Na+] (some centres unmarked) [(85)] — what was its % of Baclofen Released?
64

Same again, this time with CC(C)C(=O)O[C@H](C)OC(=O)NC[C@H](CC(=O)[O-])c1ccc(Cl)cc1.[Na+] [(34)]
18

Same again, this time with O=C([O-])C[C@@H](CNC(=O)OCOC(=O)c1ccccc1)c1ccc(Cl)cc1.[Na+] [(12)]
77

Same again, this time with CC(C)CC(=O)OCOC(=O)NC[C@H](CC(=O)[O-])c1ccc(Cl)cc1.[Na+] [(59)]
50

Same again, this time with CCOC(C)(OCC)C(=O)OCOC(=O)NC[C@H](CC(=O)[O-])c1ccc(Cl)cc1.[Na+] [(51)]
50

Same again, this time with CC(=O)OCOC(=O)NC[C@H](CC(=O)[O-])c1ccc(Cl)cc1.[Na+] [(10)]
21

Same again, this time with CC(C)C(=O)OC(OC(=O)NC[C@H](CC(=O)[O-])c1ccc(Cl)cc1)C1CCCCC1.[Na+] (some centres unmarked) [(84)]
40

Same again, this time with CC(C)C(=O)O[C@H](OC(=O)NC[C@H](CC(=O)[O-])c1ccc(Cl)cc1)C(C)C.[Na+] [(100)]
27

Same again, this time with CC(OC(=O)NC[C@H](CC(=O)[O-])c1ccc(Cl)cc1)OC(=O)C(C)C.[Na+] (some centres unmarked) [(33)]
52

Same again, this time with O=C([O-])C[C@@H](CNC(=O)OCOC(=O)c1cccs1)c1ccc(Cl)cc1.[Na+] [(57)]
75

----------
- Condition details: aqueous buffer, 1 h, pH 8
Measured % of Prodrug Remaining accompanies every entry in the list below.
Value expressed in %; do not type the unit.

Past entries and their recorded results:
>>> recorded_value("O=C([O-])C[C@@H](CNC(=O)OCOC(=O)c1cccs1)c1ccc(Cl)cc1.[Na+] [(57)]")
100
>>> recorded_value("CC(=O)OC(OC(=O)NC[C@H](CC(=O)[O-])c1ccc(Cl)cc1)C(C)C.[Na+] (some centres unmarked) [(23)]")
90
>>> recorded_value("O=C([O-])C[C@@H](CNC(=O)OCOC(=O)c1ccccc1)c1ccc(Cl)cc1.[Na+] [(12)]")
105
>>> recorded_value("CC(C)C(=O)OC(OC(=O)NC[C@H](CC(=O)[O-])c1ccc(Cl)cc1)C1CCCCC1.[Na+] (some centres unmarked) [(84)]")
94
>>> recorded_value("CC(C)CC(=O)OCOC(=O)NC[C@H](CC(=O)[O-])c1ccc(Cl)cc1.[Na+] [(59)]")
97
>>> recorded_value("CCC[C@H](OC(=O)NC[C@H](CC(=O)[O-])c1ccc(Cl)cc1)OC(=O)C(C)C.[Na+] [(91)]")
94

Sample CC(OC(=O)NC[C@H](CC(=O)[O-])c1ccc(Cl)cc1)OC(=O)C(C)C.[Na+] (some centres unmarked) [(33)] — what was its % of Prodrug Remaining?
101

Same again, this time with CC(C)C(=O)O[C@H](OC(=O)NC[C@H](CC(=O)[O-])c1ccc(Cl)cc1)C(C)C.[Na+] [(100)]
95

The reported measurements were obtained from patent EP1660440B1.
